Tested on: AsPC-1 cells
method_description: Non-anchorage-dependent cell growth inhibition (spheroid 3D culture), AsPC-1
Type: cell-based
applied_conditions: Homo sapiens, ASPC1, 144 h; KRAS G12D mutant-positive, 3D spheroid, six days, CellTiter-Glo 2.0; read-out: AsPC-1 IC50

{"compound": "CO[C@@H](C)COc1nc(NC2CN(C(=O)O[C@H]3C[C@@H](N(C)C)C3)C2)c2cc(C3CC3)c(-c3c(C)c(F)cc4[nH]ncc34)c(OCc3ccc(-c4cn([C@H](C(=O)N5C[C@H](O)C[C@H]5C(=O)N[C@@H](CO)c5ccc(-n6cncn6)cc5)C(C)C)nn4)cc3)c2n1 (atropisomer, axis not shown; (M)) [Example 2]", "IC50 / nM": 11}
{"compound": "Cc1ncsc1-c1ccc([C@H](CO)NC(=O)[C@@H]2C[C@@H](O)CN2C(=O)[C@H](C(C)C)n2cc(-c3ccc(COc4c(-c5c(C)c(F)cc6[nH]ncc56)c(C5CC5)cc5c(NCc6cccnc6)nc(OC6CCOCC6)nc45)cc3)nn2)cc1 [Example 29]", "IC50 / nM": 25}
